target.entity: T1, recombinant human GM-CSF (human, UniProt P04141 18-144)
T1 construct: also called rhGM-CSF; CSF2
experimental.details: Biacore
recorded.metric: Kd (nM)
Answers are plain numbers, in nM.

1D2 SDR mutant HK54G (antibody, IgG1, V domains shown, also called X3 G) VH: QVQLVQSGAEVKKPGASVKVSCEASGYTFTDKYLHWVRQAPGQGLEWMAWINPGSGGTFYAQNFKGRVTVTRDTSINTAYLELTSLRLDDTSTYYCARGRDYYDQGAADLWGQGTMVTVSS VL: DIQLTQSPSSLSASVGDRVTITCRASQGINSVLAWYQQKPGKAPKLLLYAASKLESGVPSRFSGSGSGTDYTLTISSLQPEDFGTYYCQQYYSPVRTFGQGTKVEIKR    0.346
1D2 SDR mutant HY103N (antibody, IgG1, V domains shown, also called X6 N) VH: QVQLVQSGAEVKKPGASVKVSCEASGYTFTDKYLHWVRQAPGQGLEWMAWINPKSGGTFYAQNFKGRVTVTRDTSINTAYLELTSLRLDDTSTYYCARGRDYNDQGAADLWGQGTMVTVSS VL: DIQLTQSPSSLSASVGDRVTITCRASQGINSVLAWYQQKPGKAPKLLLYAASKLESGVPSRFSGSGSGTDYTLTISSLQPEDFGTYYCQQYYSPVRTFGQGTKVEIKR    0.4
1D2 SDR mutant Y103R/V32R (antibody, IgG1, V domains shown) VH: QVQLVQSGAEVKKPGASVKVSCEASGYTFTDKYLHWVRQAPGQGLEWMAWINPKSGGTFYAQNFKGRVTVTRDTSINTAYLELTSLRLDDTSTYYCARGRDYRDQGAADLWGQGTMVTVSS VL: DIQLTQSPSSLSASVGDRVTITCRASQGINSRLAWYQQKPGKAPKLLLYAASKLESGVPSRFSGSGSGTDYTLTISSLQPEDFGTYYCQQYYSPVRTFGQGTKVEIKR    2.42
1D2 SDR mutant HY103R (antibody, IgG1, V domains shown, also called X6 R) VH: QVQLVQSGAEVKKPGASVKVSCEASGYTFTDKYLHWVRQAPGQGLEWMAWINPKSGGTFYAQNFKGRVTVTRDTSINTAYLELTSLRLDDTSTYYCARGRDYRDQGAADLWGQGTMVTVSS VL: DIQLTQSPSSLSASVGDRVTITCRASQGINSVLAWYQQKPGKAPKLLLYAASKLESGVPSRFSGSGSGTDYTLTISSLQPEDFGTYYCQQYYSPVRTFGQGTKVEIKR    0.414

Proceed to the following item.
[ask] Look at this binder and give its reported Kd. antibody 1D2 (antibody, V domains shown, also called 1D2-WT; WT) VH: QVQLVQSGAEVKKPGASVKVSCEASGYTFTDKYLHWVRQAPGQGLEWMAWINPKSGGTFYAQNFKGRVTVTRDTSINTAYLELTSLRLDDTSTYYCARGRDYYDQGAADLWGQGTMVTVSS VL: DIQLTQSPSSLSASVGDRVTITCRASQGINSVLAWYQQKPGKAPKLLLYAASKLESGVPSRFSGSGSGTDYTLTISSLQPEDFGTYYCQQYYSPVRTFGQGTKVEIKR
[reply] 0.099
